# pIC50 per record follows
- System: all cell lines tested
- assay-remarks: 2D cell proliferation assay, geometric mean over the cell line panel
- Assay type: cell-based
- conditions: Table 5 lower part; geometric mean over the 8-line panel; read-out: Geomean abs. IC50 value
pIC50: −log10 of the molar value.

compound: CN1CCN(c2ccc(Nc3ncc4c(n3)N(C3CCCC3)C(=O)[C@]3(CCNC3=O)C4)cc2)CC1 [Example D144]
pIC50: 6.32
//
compound: CC(C)N1CCN(c2ccc(Nc3ncc4c(n3)N(C3CCCC3)C(=O)[C@]3(CCNC3=O)C4)cc2)CC1 [Example D145]
pIC50: 6.72
//
compound: CN1CCN(c2ccc(Nc3ncc4c(n3)N(C3CCCC3)C(=O)[C@]3(CCNC3=O)C4)cc2F)CC1 [Example D52]
pIC50: 6.74
//
compound: Cc1cc(Nc2ncc3c(n2)N(C2CCCC2)C(=O)[C@]2(CCNC2=O)C3)ccc1N1CCN(C(C)C)CC1 [Example D158]
pIC50: 6.52
//
compound: O=C1NCC[C@@]12Cc1cnc(Nc3ccc(N4CCNCC4)c(F)c3)nc1N(C1CCCC1)C2=O [Example D50]
pIC50: 6.76
//
compound: CC(C)N1CCN(c2ccc(Nc3ncc4c(n3)N(C3CCCC3)C(=O)[C@]3(CCNC3=O)C4)cc2F)CC1 [Example D54]
pIC50: 6.45
//
compound: CN(C)[C@@H]1CCN(c2ccc(Nc3ncc4c(n3)N(C3CCCC3)C(=O)[C@]3(CCNC3=O)C4)cc2F)C1 [Example D176]
pIC50: 6.75
